Reference source: patent US20230090901A1

Molecular target: T1, L1 (DV1-GV4), soluble leucine zipper γδ TCR heterodimer of a delta variable 1 chain and a gamma variable 4 … (human)
T1 construct: also called bt-L1; not shown: histidine tag/linker said to follow the zipper
T1 sequence (main, as listed by the source, chain 1 of 2): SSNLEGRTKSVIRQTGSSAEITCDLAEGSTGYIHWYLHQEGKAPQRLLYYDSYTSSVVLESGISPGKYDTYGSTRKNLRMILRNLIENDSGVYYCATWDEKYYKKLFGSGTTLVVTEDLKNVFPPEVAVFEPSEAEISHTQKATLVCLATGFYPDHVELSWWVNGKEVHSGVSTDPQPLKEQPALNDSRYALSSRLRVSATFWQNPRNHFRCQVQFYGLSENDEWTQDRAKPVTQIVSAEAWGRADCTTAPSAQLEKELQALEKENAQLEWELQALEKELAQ
T1 sequence (main, as listed by the source, chain 2 of 2): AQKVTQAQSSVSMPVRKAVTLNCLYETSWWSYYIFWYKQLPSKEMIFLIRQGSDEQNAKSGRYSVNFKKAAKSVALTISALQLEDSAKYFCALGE
Assay: DELFIA ELISA, coated antigen;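 also: binding of antibody supernatants or protein-A purified antibodies to plate-coated antigen (3 µg/ml recombinant TCR or BSA), 1 h incubation at room temperature, DELFIA readout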
Record form. Attribute: DELFIA ELISA response (FU). Fill in for each entry.
Value expressed in FU; do not type the unit.

DELFIA ELISA response (FU) measured on G4_26 (antibody, human IgG1, V domains shown, also called clone G4_26) VH: QVQLVQSGAEVKKPGSSVKVSCKASGGTFSSYAISWVRQAPGQGLEWMGGIIPIFGTANYAQKFQGRVTITADESTSTAYMELSSLRSEDTAVYYCASSRGSGWFPLGYWGQGTLVTVSS VL: SQSGLTQPASVSGSPGQSITISCTGTSSDVGSYNLVSWYQQHPGKAPKLMIYEVSKRPSGVSNRFSGSKSGNTASLTISGLQAEDEADYYCSSFGSGSIFGTGTKLTVLG = 22800

DELFIA ELISA response (FU) measured on G4_19 (antibody, human IgG1, V domains shown, also called clone G4_19) VH: EVQLVQSGAEVKKPGASVKVSCKASGYTLTSYYMHWVRQAPGQGLEWMGIINPSGGSTSYAQKFQGRVTMTRDTSTSTVYMELSSLRSEDTAVYYCARERGYSYGDGMDVWGQGTTVTVSS VL: SNFMLTQPHSVSESPGKTVTISCTRSSGSIASNYVQWYQQRPGSPPITLIYDDDQRPSGVPHRFSGSIDTSSNPASLTISGLKTEDEADYYCQSYDSSNHVVFGGGTKLTVLG = 142000

DELFIA ELISA response (FU) measured on G4_27 (antibody, human IgG1, V domains shown, also called 1248_P02_C10; clone G4_27) VH: QVQLVQSGAEVKKPGESLKISCKSSGYSFTSYWIGWVRQMPGKGLEWMGIIYPGDSDTRYSPSFQGQVTFSADESISTAYLQWSSLKASDTAMYYCARHGAYGDYPDTFDIWGQGTLVTVSS VL: SSYELTQDPAVSVALGQTVSITCQGDSLRNFYANWYQQKPGQAPVLVIYGKNNRPSGIPDRFSGSSSGNTASLTITGAQAEDEADYYCNSRDSSGNHLVFGGGTQLTVLG = 138000
